- method: Clearance rate (0.3 mg/kg) on intravenous administration to rats
- Type: ADME, organism-based
- study-conditions: rat, in vivo
measurement-label: clearance (mL/min/kg)
Please state the figure in mL/min/kg; there is no need to write the unit.

Q: Please indicate clearance recorded for CC[C@H]1[Se]C(N)=N[C@@H]1C
Result: 55.5

====

- method: Area under the concentration time curve value of compound was determined in rats after oral dosage of 0.3 mg/kg
- Type: ADME, organism-based
- Parameters: dose 0.3 mg/kg, route oral
- study-conditions: rat, in vivo
measurement-label: AUC

Q: Please indicate AUC recorded for CC[C@H]1[Se]C(N)=N[C@@H]1C
Result: 45 ng·h/mL

====

- method: Half life value of compound (0.3 mg/kg) on intravenous administration to […]
- Type: ADME, organism-based
- study-conditions: rat, in vivo
measurement-label: half-life (min)
Please state the figure in min; there is no need to write the unit.

Q: Please indicate half-life recorded for CC[C@H]1[Se]C(N)=N[C@@H]1C
Result: 57

====

Please consider the recorded IC50 for Nitric oxide synthase, inducible (Homo sapiens) in what follows.
Please state the figure in µM; there is no need to write the unit.

Q: Please indicate IC50 recorded for CC[C@@H]1[Se]C(N)=N[C@H]1C
Result: 0.034

Q: Please indicate IC50 recorded for CC[C@@H]1[Se]C(N)=N[C@@H]1C
Result: 0.066

Q: Please indicate IC50 recorded for CC[C@@H]1N=C(N)[Se][C@@H]1C
Result: 0.08

Q: Please indicate IC50 recorded for CC[C@H]1[Se]C(N)=N[C@H]1C
Result: 0.34

Q: Please indicate IC50 recorded for CC[C@H]1[Se]C(N)=N[C@@H]1C
Result: 0.0093

Q: Please indicate IC50 recorded for CC[C@@H]1N=C(N)[Se][C@H]1C
Result: 0.021

Q: Please indicate IC50 recorded for CC[C@H]1SC(N)=N[C@@H]1C
Result: 0.0066

Q: Please indicate IC50 recorded for CC[C@H]1N=C(N)[Se][C@@H]1C
Result: 0.0094

Q: Please indicate IC50 recorded for CC[C@H]1N=C(N)[Se][C@H]1C
Result: 0.021

====

- target-or-system: Nitric oxide synthase 1 (Homo sapiens)
- Sequence (P29475 whole entry): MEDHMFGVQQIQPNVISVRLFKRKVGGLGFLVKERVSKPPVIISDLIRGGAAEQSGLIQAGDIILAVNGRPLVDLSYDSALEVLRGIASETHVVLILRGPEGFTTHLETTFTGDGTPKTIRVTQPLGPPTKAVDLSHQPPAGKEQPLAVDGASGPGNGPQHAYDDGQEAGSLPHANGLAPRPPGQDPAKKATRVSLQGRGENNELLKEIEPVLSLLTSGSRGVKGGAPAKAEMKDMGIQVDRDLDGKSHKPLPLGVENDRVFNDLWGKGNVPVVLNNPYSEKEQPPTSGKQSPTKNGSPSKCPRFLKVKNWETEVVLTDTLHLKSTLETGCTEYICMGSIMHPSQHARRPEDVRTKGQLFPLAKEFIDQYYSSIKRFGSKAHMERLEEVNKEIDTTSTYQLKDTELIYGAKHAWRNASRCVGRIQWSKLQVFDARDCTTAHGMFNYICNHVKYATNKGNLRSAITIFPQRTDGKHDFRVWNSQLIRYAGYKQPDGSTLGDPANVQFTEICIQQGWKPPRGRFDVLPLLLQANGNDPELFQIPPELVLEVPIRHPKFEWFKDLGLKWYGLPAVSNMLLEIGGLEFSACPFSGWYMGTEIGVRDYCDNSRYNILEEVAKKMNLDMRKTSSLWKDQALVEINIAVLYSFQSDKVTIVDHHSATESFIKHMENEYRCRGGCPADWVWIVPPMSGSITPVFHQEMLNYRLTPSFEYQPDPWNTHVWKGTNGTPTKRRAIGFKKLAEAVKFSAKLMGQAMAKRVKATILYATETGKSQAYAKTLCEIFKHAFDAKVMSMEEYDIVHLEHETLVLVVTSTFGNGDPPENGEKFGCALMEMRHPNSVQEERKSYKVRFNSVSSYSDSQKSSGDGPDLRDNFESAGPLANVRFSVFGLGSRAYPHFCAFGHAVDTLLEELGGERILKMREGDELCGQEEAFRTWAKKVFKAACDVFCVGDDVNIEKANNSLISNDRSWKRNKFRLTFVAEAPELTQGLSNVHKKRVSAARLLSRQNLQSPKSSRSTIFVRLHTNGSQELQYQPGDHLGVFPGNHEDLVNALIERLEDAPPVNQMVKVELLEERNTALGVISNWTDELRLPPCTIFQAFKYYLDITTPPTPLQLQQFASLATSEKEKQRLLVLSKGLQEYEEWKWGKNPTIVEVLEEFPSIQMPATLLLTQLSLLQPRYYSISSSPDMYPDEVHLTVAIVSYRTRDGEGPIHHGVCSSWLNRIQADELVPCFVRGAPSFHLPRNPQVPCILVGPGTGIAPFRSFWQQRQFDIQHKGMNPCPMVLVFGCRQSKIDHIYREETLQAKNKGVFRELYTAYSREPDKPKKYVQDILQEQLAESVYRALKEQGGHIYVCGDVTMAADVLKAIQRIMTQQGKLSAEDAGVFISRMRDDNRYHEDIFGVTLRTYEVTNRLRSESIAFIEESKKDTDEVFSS
measurement-label: log10(IC50) (log10 of the value in nM)
Transform log10 | Measure IC50 | Unit nM

Q: Please indicate log10(IC50) recorded for CC[C@H]1[Se]C(N)=N[C@H]1C
Result: 3.84

Q: Please indicate log10(IC50) recorded for CC[C@H]1N=C(N)[Se][C@@H]1C
Result: 1.96

Q: Please indicate log10(IC50) recorded for CC[C@@H]1N=C(N)[Se][C@H]1C
Result: 2.45

Q: Please indicate log10(IC50) recorded for CC[C@H]1SC(N)=N[C@@H]1C
Result: 2.58

Q: Please indicate log10(IC50) recorded for CC[C@H]1[Se]C(N)=N[C@@H]1C
Result: 2.90

Q: Please indicate log10(IC50) recorded for CC[C@@H]1[Se]C(N)=N[C@@H]1C
Result: 3.11

Q: Please indicate log10(IC50) recorded for CC[C@@H]1[Se]C(N)=N[C@H]1C
Result: 2.54

Q: Please indicate log10(IC50) recorded for CC[C@@H]1N=C(N)[Se][C@@H]1C
Result: 2.87

Q: Please indicate log10(IC50) recorded for CC[C@H]1N=C(N)[Se][C@H]1C
Result: 2.45

====

- method: Tmax of compound (0.3 mg/kg) on oral administration to rats
- Format: ADME, organism-based
- study-conditions: rat, in vivo
measurement-label: Tmax (min)
Please state the figure in min; there is no need to write the unit.

Q: Please indicate Tmax recorded for CC[C@H]1[Se]C(N)=N[C@@H]1C
Result: 30

====

- method: Area under concentration time curve value in rat was determined at a intravenous dosage of 0.3 mg/kg
- Type: ADME, organism-based
- Parameters: dose 0.3 mg/kg, route intravenous
- study-conditions: in vivo
measurement-label: AUC (ng·h/mL)
Please state the figure in ng·h/mL; there is no need to write the unit.

Q: Please indicate AUC recorded for CC[C@H]1[Se]C(N)=N[C@@H]1C
Result: 117

Data credit: ChEMBL document CHEMBL1142001
